Data provenance is ChEMBL document CHEMBL1132553.

Recorded IC50 values (Matrilysin (Homo sapiens)) are given below.
Answer with a number only, understood to be in nM.

# annotated cases, reported IC50 shown
{"Compound": "CO/N=C1/C[C@H](C(=O)NO)N(S(=O)(=O)c2ccc(OC)cc2)C1", "Unit Annotation": "nM", "IC50": 82}
{"Compound": "C=C1C[C@H](C(=O)NO)N(S(=O)(=O)c2ccc(OCCCC)cc2)C1", "Unit Annotation": "nM", "IC50": 1080}
{"Compound": "COc1ccc(S(=O)(=O)N2CC(NOC(C)(C)C)C[C@@H]2C(=O)NO)cc1 (stereo not given in full)", "Unit Annotation": "nM", "IC50": 5230}
{"Compound": "CCCCOc1ccc(S(=O)(=O)N2C/C(=N\\OCc3ccccc3)C[C@@H]2C(=O)NO)cc1", "Unit Annotation": "nM", "IC50": 490}
{"Compound": "C=C1C[C@H](C(=O)NO)N(S(=O)(=O)c2ccc(Oc3ccccc3)cc2)C1", "Unit Annotation": "nM", "IC50": 53}

Bench note, Matrilysin (Homo sapiens): CO/N=C1/C[C@H](C(=O)NO)N(S(=O)(=O)c2ccc(Oc3ccncc3)cc2)C1 , IC50 reads 922

Tested on Matrilysin (Homo sapiens): CCCCOc1ccc(S(=O)(=O)N2C/C(=N\N3CCNCC3)C[C@@H]2C(=O)NO)cc1 . Observed IC50: 343

Hey, Matrilysin (Homo sapiens) data for CCOc1ccc(S(=O)(=O)N2C/C(=N\OC)C[C@@H]2C(=O)NO)cc1 : IC50 came out at 1060

Per the reported Matrilysin (Homo sapiens) data, CONC1C[C@H](C(=O)NO)N(S(=O)(=O)c2ccc(OC)cc2)C1 (stereo not given in full) has IC50 of 3390

The observed IC50 for CCCCOc1ccc(S(=O)(=O)N2CC(NOC)C[C@@H]2C(=O)NO)cc1 (stereo not given in full) when tested with Matrilysin (Homo sapiens) stands at 2080

* * *

target: UniProt P45452; assay: In vitro inhibition of human recombinant collagenase-3 (Matrix metalloprotease-13)
Assay Endpoint: log10 IC50 (log10 of the value in nM)
In our notation, the value equals log10 of IC50 in nM.

Illustrative cases are given below, each with its answer.
{"Smiles Repr": "CO/N=C1/C[C@H](C(=O)NO)N(S(=O)(=O)c2ccc(Oc3ccc(F)cc3)cc2)C1", "Target Of Assay": "UniProt P45452", "log10 IC50": -0.10}
{"Smiles Repr": "C=C1C[C@H](C(=O)NO)N(S(=O)(=O)c2ccc(OCCOC)cc2)C1", "Target Of Assay": "UniProt P45452", "log10 IC50": 1.04}
{"Smiles Repr": "CCCCOc1ccc(S(=O)(=O)N2C/C(=N\\OCc3ccccc3)C[C@@H]2C(=O)NO)cc1", "Target Of Assay": "UniProt P45452", "log10 IC50": -1.00}
{"Smiles Repr": "CCCCOc1ccc(S(=O)(=O)N2C/C(=N\\O)C[C@@H]2C(=O)NO)cc1", "Target Of Assay": "UniProt P45452", "log10 IC50": -0.52}

Continue with the compound presented below.
Field log10 IC50 (UniProt P45452), entry COc1ccc(S(=O)(=O)N2C/C(=N\O)C[C@@H]2C(=O)NO)cc1 : -0.70
